molecular target: Glutamate receptor ionotropic, NMDA 2A (Homo sapiens, UniProt Q05586+Q12879); assay: Positive allosteric modulation of GluN2A receptor (unknown origin) expressed in xenopus laevis oocytes assessed as increase in glycine-induced channel current by two electrode voltage clamp method; format: cell-based
Sequence (Q12879 whole entry, one chain of several): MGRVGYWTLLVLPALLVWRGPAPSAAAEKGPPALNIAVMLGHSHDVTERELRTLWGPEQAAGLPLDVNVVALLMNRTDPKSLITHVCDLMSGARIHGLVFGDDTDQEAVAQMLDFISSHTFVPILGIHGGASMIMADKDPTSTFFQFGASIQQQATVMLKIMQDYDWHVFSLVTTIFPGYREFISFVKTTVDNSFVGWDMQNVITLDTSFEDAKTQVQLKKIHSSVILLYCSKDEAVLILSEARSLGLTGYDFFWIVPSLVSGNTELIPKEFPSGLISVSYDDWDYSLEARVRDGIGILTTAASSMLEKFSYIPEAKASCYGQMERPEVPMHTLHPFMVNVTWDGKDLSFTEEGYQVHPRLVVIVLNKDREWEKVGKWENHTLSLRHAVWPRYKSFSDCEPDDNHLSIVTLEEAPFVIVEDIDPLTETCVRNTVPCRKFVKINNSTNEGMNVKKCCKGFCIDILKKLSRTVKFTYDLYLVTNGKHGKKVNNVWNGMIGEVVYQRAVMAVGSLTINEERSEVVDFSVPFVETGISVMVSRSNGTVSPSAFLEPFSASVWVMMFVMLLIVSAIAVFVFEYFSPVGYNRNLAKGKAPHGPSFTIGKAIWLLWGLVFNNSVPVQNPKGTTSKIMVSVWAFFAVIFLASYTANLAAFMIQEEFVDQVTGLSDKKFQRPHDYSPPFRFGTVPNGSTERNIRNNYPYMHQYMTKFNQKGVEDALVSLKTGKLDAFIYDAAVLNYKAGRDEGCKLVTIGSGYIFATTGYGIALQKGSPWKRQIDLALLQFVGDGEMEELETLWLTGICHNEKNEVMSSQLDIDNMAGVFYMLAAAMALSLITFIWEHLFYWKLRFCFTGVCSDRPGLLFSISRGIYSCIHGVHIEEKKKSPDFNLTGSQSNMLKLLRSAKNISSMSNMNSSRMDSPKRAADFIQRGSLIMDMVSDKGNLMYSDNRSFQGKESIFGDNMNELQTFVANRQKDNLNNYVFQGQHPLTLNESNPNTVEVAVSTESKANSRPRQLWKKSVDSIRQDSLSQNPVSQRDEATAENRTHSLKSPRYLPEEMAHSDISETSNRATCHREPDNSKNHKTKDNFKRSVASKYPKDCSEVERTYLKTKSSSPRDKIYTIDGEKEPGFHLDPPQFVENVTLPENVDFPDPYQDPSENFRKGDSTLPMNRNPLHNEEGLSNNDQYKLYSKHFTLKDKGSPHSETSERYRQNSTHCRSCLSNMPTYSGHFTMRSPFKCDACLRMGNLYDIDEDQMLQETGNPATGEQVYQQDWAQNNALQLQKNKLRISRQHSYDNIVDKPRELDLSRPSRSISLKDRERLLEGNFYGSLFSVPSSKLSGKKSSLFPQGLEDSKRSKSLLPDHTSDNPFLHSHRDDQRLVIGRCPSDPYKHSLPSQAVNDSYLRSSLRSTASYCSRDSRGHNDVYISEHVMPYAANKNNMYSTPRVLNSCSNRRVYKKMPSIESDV
parameter_measured: EC50 (µM)
Respond numerically; units are µM and should not be typed.

record_smiles: O=C(O)c1ccc2cc(I)c3ccccc3c2c1
target_desc: Glutamate receptor ionotropic, NMDA 2A (Homo sapiens, UniProt Q05586+Q12879)
parameter_measured: EC50
val: 100
//
record_smiles: CC(=O)[C@H]1CC[C@H]2[C@@H]3CC=C4C[C@@H](OS(=O)(=O)O)CC[C@]4(C)[C@H]3CC[C@]12C
target_desc: Glutamate receptor ionotropic, NMDA 2A (Homo sapiens, UniProt Q05586+Q12879)
parameter_measured: EC50
val: 21
//
record_smiles: Cc1sc2nc(COc3ccc(F)cc3)cc(=O)n2c1[C@@H]1C[C@@H]1CO
target_desc: Glutamate receptor ionotropic, NMDA 2A (Homo sapiens, UniProt Q05586+Q12879)
parameter_measured: EC50
val: 8.5
//
record_smiles: CC(C)CCCc1ccc2cc(C(=O)O)ccc2c1
target_desc: Glutamate receptor ionotropic, NMDA 2A (Homo sapiens, UniProt Q05586+Q12879)
parameter_measured: EC50
val: 28

Proceed to the following item.
# input Which EC50 value is on record for CCCc1nc2[nH]c(C)c(NS(=O)(=O)c3ccc(C4CCCCC4)cc3)c(=O)n2n1 ?
# output 3.2

###

target: Glutamate receptor ionotropic, NMDA 2A (Homo sapiens, UniProt Q05586+Q12879); test: Negative allosteric modulation of human GluN2A receptor expressed in xenopus laevis oocytes assessed as reduction in 3 uM glycine-induced channel current at -40 mV holding potential by two electrode voltage clamp method; type: cell-based
parameter_measured: pIC50
Schema: pIC50 number; meaning minus log10 of the concentration expressed in molar units.

# input Look up pIC50 with Glutamate receptor ionotropic, NMDA 2A (Homo sapiens, UniProt Q05586+Q12879) for this molecule: CC(C(O)c1ccc(O)cc1)N1CCC(Cc2ccccc2)CC1 (stereo unspecified)
# output 4.40

###

molecular target: Glutamate NMDA receptor; GRIN1/GRIN2A (Homo sapiens, UniProt Q05586+Q12879); experiment: Negative allosteric modulation of GluN1a/GluN2A receptor (unknown origin) expressed in xenopus laevis oocytes assessed as reduction in glutamate/glycine-induced channel current at -60 mV holding potential by two electrode voltage clamp method
Sequence (Q12879 whole entry, other chains not shown): as the sequence (Q12879 whole entry, one chain of several) above
parameter_measured: IC50 (µM)
The reply should contain only the number, in µM.

# input Please give the measured IC50 for this compound: O=C(O)c1cc2cc(Br)ccc2oc1=O
# output 19
